Settings: buffer; pH 7.4; 200.0 µM
Measured solubility kinetic values are reported for all entries that follow.
Readout: solubility kinetic (µg/mL)

>>> recorded_value("CCOc1nc(-c2ccccc2)c2cc(C)ccc2n1")
4.8
>>> recorded_value("COc1cc([N+](=O)[O-])ccc1NC(=S)NC(=O)CC(C)(C)C")
0.3
>>> recorded_value("Cc1ccc2c(CN3CCCCC3)cc(=O)oc2c1C")
22.6
>>> recorded_value("COc1ccc(NC(=O)N2CCc3ccccc3C2)cc1")
17.8
>>> recorded_value("Cc1ccc(C(=O)Nc2ccc(CN3CCS(=O)(=O)CC3)cc2)cc1C")
42.7
>>> recorded_value("Cc1ccc(C(=O)Nc2cccnc2)cc1Cl")
35.6
>>> recorded_value("O=C(Nc1cc(Cl)c(Cl)cc1Cl)c1cccnc1")
6.1
>>> recorded_value("CC(=O)CCSc1ncnc2sc(-c3ccccc3)cc12")
0.6
>>> recorded_value("CC1(C)C(=O)Nc2ccccc2N1C(=O)COC(=O)c1cccs1")
9.6
>>> recorded_value("COc1cccc(C=N[C@@H](CO)[C@@H](O)c2ccc([N+](=O)[O-])cc2)c1O")
50.6
>>> recorded_value("N#C/C(=C\\c1ccco1)C(=O)Nc1ccc(S(N)(=O)=O)cc1")
3.5
>>> recorded_value("CC(C)(C)CC(=O)Nc1cc2c3c(c1)CCC(=O)N3CCC2")
43.2

###

Details: buffer; pH 7.4; 200.0 µM
Measured solubility kinetic values are reported for all entries that follow.
Readout: solubility kinetic

>>> recorded_value("O=C(CSc1nnc(-c2ccccn2)o1)Nc1ccc(F)cc1")
"> 49.6 µg/mL"
>>> recorded_value("O=C(CN1C(=O)NC2(CCCCCC2)C1=O)N1CCCCC1")
"> 46.1 µg/mL"
>>> recorded_value("Cc1ccc(NS(=O)(=O)c2ccc(NC(=O)c3ccccc3C(=O)O)cc2)cc1C")
"> 63.7 µg/mL"
>>> recorded_value("COc1ccc(C2NC(=O)CCC2[N+](=O)[O-])c(OC)c1 (stereo not given)")
"> 42 µg/mL"
>>> recorded_value("CC(OC(=O)c1cc[n+]([O-])cc1)C(=O)NCc1ccccc1 (stereo not given)")
"> 45 µg/mL"

###

Details: buffer; pH 7.4; 200.0 µM
Readout: solubility kinetic

>>> recorded_value("O=C(Nc1cc(Cl)ccc1N1CCOCC1)c1cccnc1")
"> 47.7 µg/mL"
>>> recorded_value("Cc1ccc(S(=O)(=O)n2ccc3c2CCCC3=O)cc1")
"> 43.4 µg/mL"
>>> recorded_value("O=C(Nc1ccc(S(=O)(=O)Nc2nccs2)cc1)C(F)(F)F")
"> 52.7 µg/mL"

###

Measured solubility kinetic values are reported for all entries that follow.
Conditions: buffer; pH 7.4; 200.0 µM
Readout: solubility kinetic

>>> recorded_value("O=[N+]([O-])c1ccc(Cl)c(NC2=NCCCCC2)c1")
"> 40.2 µg/mL"
>>> recorded_value("CN1CCc2c(OCC(=O)N3CCCc4ccccc43)cccc2C1=O")
"> 52.6 µg/mL"
>>> recorded_value("CCC1CCCCN1C(=S)NC(=O)c1cccc([N+](=O)[O-])c1 (stereo not given)")
"> 48.2 µg/mL"
>>> recorded_value("O=C(CN1C(=O)NC2(CCCCCC2)C1=O)NCc1ccccc1Cl")
"> 54.6 µg/mL"
>>> recorded_value("O=C(O)CCCCCNC(=O)C(=O)C1C(=O)Nc2ccccc21 (stereo not given)")
"> 47.7 µg/mL"
